experiment: molar heat capacity at constant pressure; details: 268 K; 101.33 kPa; Crystal 2; Large sample (1 g) DSC
metric: molar heat capacity at constant pressure (J/K/mol)

CCCCCCCCCC(N)=O [decanamide] :: 238.5
CCCCCCCC(N)=O [octanamide] :: 235.4

[a] CCCCC(N)=O [pentanamide]
[b] CCCCCCCCCCCCCCCC(N)=O [hexadecanamide]
Ask: a or b : whose molar heat capacity at constant pressure is greater? State the label of the item chosen.
Reply: b

* * *

assay: molar heat capacity at constant pressure; details: 273 K; 101.33 kPa; Crystal 2; Large sample (1 g) DSC
metric: molar heat capacity at constant pressure (J/K/mol)

Consider the reported molar heat capacity at constant pressure for these compounds:
CCCCCCCCCC(N)=O [decanamide] :: 247.6
CCCCC(N)=O [pentanamide] :: 189.4

[P] CCCCCCCC(N)=O [octanamide]
[Q] CCCCCCCCCCCCCCCC(N)=O [hexadecanamide]
Ask: In the pair P and Q , the larger recorded molar heat capacity at constant pressure belongs to which? Lab note: record the label of whichever item you select.
Reply: Q

These measurements were taken from the NIST ThermoML archive (doi:10.1021/je700662a).
